Values were extracted from patent US20060193821.

# target-system: IL-12 (human, p35/p40 heterodimer) (Homo sapiens, UniProt P29459;P29460 SEQ:57-253,SEQ:23-328)
# Sequence (P29459 23-219, chain 1 of 2): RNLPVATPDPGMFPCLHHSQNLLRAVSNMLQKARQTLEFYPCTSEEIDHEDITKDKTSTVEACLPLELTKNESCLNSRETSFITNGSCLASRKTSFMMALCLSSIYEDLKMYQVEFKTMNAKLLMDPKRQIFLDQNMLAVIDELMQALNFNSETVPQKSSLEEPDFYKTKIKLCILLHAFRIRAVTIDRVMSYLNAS
# Sequence (P29460 23-328, chain 2 of 2): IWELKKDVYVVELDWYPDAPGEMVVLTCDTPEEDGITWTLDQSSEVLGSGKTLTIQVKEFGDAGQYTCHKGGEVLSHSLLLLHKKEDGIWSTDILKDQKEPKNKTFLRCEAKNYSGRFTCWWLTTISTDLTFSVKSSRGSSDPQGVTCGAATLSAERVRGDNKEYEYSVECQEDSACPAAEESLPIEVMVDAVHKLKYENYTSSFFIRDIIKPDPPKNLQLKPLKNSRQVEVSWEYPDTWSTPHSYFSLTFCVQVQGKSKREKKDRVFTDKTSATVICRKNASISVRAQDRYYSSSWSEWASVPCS
# protocol: filter; 1X PBS, tRNA, ssDNA, BSA, 30 min RT
# run-parameters: label: 5'-32P; G4 (predicted)
pKd: −log10 of the molar value.
# pKd per entry
value-type: pKd

binder	value-type	test-value
ARC621 (mixed, 2'-deoxy A and G, 2'-OMe C and U (dRmY)) RNA: GGGAGAGGAGAGAACGUUCUACAGGCGGUUACGGGGGAUGCGGGUGGGACAGGUCGAUCGAUCGAUCAUCGAUG	pKd	6.95
ARC612 (mixed, 2'-deoxy A and G, 2'-OMe C and U (dRmY)) RNA: GGGAGAGGAGAGAACGUUCUACAGGCAAGUAAUUGGGGAGUGCGGGCGGGGGGGUCGAUCGAUCGAUCAUCGAUG	pKd	7.38
ARC614 (mixed, 2'-deoxy A and G, 2'-OMe C and U (dRmY)) RNA: GGGAGAGGAGAGAACGUUCUACAAGGCGGUACGGGGAGUGUGGGUUGGGGCCGGUCGAUCGAUCGAUCAUCGAUG	pKd	7.26
ARC616 (mixed, 2'-deoxy A and G, 2'-OMe C and U (dRmY)) RNA: GGGAGAGGAGAGAACGUUCUACGAUAUAGGCGGUACGGGGGGAGUGGGCUGGGGUCGAUCGAUCGAUCAUCGAUG	pKd	7.28
ARC611 (mixed, 2'-deoxy A and G, 2'-OMe C and U (dRmY)) RNA: GGGAGAGGAGAGAACGUUCUACAGGCAAGGCAAUUGGGGAGUGUGGGUGGGGGGUCGAUCGAUCGAUCAUCGAUG	pKd	6.91
